Here, each record is paired with measured EC50 data.
Target: human NPRA (Homo sapiens, UniProt P16066)
Construct: Full-Length cDNA Cloning and Generation of Cell Lines Overexpressing Natriuretic Peptide Receptors (NPRs); expressed in transfected cells; host or cells: Jump-in T-Rex HEK293 cells, pJTI R4 CMV-TO MCS pA vector, tetracycline induction
Sequence (P16066 33-1061): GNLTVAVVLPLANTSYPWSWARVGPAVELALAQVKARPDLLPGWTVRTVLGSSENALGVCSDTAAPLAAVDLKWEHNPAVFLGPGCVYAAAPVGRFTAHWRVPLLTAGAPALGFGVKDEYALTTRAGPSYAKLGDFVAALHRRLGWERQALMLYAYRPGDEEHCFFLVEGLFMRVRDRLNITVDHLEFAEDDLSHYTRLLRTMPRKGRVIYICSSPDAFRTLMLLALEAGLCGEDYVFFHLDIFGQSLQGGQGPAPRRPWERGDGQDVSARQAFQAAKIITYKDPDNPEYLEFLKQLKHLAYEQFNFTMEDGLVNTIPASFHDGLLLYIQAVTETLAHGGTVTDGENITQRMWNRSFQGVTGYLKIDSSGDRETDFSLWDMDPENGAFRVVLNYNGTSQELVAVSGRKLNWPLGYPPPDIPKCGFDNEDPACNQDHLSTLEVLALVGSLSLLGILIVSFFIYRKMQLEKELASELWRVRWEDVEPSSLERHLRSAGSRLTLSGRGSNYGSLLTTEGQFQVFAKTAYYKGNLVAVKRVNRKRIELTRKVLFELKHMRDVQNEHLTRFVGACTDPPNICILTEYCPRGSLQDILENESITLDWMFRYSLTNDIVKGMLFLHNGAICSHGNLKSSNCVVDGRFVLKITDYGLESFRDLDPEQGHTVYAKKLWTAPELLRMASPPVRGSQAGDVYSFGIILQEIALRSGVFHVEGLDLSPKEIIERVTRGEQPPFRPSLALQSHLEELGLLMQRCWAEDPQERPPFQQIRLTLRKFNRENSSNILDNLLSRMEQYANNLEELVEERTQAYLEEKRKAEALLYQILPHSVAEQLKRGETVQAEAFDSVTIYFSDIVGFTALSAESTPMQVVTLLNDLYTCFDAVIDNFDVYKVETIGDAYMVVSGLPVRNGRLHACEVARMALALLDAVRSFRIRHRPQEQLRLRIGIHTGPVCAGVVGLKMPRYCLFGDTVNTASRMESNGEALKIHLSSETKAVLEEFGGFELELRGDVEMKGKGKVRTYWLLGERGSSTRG
Assay: Human NPRA cGMP activity assay (HTRF) in HEK293 cells overexpressing NPRA
Format: cell-based
Conditions: assay buffer with 0.1% BSA, read-out: cGMP Assay (EC50, pM) w/BSA hNPRA
Numbered stars: 1 amine (or outer) side, 2 acyl side, 3 side chain; on linkers, the order of the positions; unused ones are H or OH. Bridge positions count the residues as written; N and C are the ends. Square brackets hold non-standard residues; d marks the D form. * marks the point of attachment. C20 diacid = O=C(O)CCCCCCCCCCCCCCCCCCC(=O)*; γGlu = O=C(O)[C@H](CCC(=O)[*:2])N[*:1]; 4Pal = N[C@@H](Cc1ccncc1)C(=O)O; Dap = NC[C@H](N)C(=O)O; Aib = CC(C)(N)C(=O)O; CH2 = C([*:1])[*:2]
API: value field is a number in pM; no unit string.

Some entries whose results are on file:
Substance | EC50, pM
{C20 diacid-γGlu}-EKEKEKGEKPRSSCFG[Dap]RIDRIGHYSGLGCPSFRHGSPSSGAPPPS-NH2 (linker 14-30 via CH2) [Example 136] | 100000
{C20 diacid-γGlu}-EKEKEKGEKPRSSCFG[Dap]RIDRIGHQSGLGCPSFRHGSPSSGAPPPS-NH2 (linker 14-30 via CH2) [Example 137] | 155000

Kindly consider the entry below.
Data request: Hello, I am looking for reported EC50 with human NPRA (Homo sapiens, UniProt P16066) for {C20 diacid-γGlu}-EKEKEKGS[4Pal]RRSSCFGGRIDRIGHQSGLGCPSFRHGGPPS[Aib]KPPPK-NH2 (linker 14-30 via CH2) [Example 68] . Could you help?
Data returned: 96800

Source: patent US20240174727A1
